The values you see were collected from patent US20100048606A1.

Please provide measured potency estimated from few doses for the entries that follow.
# TEST_SYSTEM: α4β4 nAChR (Rattus norvegicus, UniProt P09483+P12392)
# Construct: expressed in transfected cells
# Sequence (P09483 31-630): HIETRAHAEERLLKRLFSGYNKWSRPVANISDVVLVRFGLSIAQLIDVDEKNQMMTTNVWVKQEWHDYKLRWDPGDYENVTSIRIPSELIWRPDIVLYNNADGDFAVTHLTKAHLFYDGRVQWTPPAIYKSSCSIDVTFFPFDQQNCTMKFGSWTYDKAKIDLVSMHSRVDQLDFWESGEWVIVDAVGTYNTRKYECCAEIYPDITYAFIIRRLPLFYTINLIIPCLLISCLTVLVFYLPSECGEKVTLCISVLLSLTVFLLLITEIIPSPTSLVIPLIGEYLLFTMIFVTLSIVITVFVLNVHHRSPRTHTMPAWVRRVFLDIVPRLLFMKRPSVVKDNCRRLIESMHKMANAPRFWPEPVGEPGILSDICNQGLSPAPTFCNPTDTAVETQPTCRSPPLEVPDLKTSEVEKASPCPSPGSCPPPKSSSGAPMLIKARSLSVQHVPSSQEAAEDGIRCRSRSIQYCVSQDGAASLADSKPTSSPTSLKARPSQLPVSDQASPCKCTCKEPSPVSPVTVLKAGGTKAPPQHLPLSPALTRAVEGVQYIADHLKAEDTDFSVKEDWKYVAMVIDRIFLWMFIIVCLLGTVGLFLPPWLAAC
# Sequence (P12392 21-495): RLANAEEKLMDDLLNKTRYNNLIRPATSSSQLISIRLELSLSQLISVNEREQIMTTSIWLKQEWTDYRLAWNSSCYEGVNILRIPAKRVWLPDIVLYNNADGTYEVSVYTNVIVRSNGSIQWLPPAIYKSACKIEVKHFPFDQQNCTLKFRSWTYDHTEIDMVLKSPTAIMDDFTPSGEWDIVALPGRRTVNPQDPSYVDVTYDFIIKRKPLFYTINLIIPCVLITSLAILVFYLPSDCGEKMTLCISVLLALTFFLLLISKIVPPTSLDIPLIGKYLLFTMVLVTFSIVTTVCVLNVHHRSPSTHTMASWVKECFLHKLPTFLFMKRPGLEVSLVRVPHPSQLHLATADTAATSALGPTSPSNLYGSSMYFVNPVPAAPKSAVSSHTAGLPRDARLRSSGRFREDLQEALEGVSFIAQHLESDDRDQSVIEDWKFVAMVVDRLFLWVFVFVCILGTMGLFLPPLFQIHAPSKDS
# PROTOCOL_NOTES: Competition binding with [3H]epibatidine, membrane homogenates of stably transfected cells
# APPLIED_CONDITIONS: primary screening; estimated from single concentration (10 μM) competition binding; read-out: Estimated Ki α4β4
Expressed in µM, but write only the number.

Query: Please report the measured potency estimated from few doses for O=c1ccccn1CC1CCNCC1
Reply: 5.4

Query: Please report the measured potency estimated from few doses for O=c1ccccn1CC1CCCN(Cc2ccccc2)C1 (centres unmarked)
Reply: 1.4

Query: Please report the measured potency estimated from few doses for CN1CCCC(Cn2ccccc2=O)C1 (centres unmarked)
Reply: 2.6

Query: Please report the measured potency estimated from few doses for O=c1ccccn1CC1CCCNC1 (centres unmarked)
Reply: 5.55

Query: Please report the measured potency estimated from few doses for O=c1ccccn1CC1CCN(Cc2ccccc2)CC1
Reply: 4.5

* * *

# Tested on: α6β42
# PROTOCOL_NOTES: Primary screening, single concentration competition binding assay
# APPLIED_CONDITIONS: estimated from single concentration (10 μM) competition binding, read-out: Estimated Ki α6β42
I would appreciate it if you labelled entries rule met when potency estimated from few doses is 90 µM or higher, otherwise rule not met.

Query: Dear colleague, could you confirm whether O=c1ccccn1CC1CCN(Cc2ccccc2)CC1 [Compound 7b] has potency estimated from few doses at or above 90 µM?
Reply: rule met

Query: Dear colleague, could you confirm whether CN1CCCC(Cn2ccccc2=O)C1 (centres unmarked) [Compound 6b] has potency estimated from few doses at or above 90 µM?
Reply: rule not met

Query: Dear colleague, could you confirm whether O=c1ccccn1CC1CCNCC1 [Compound 7a] has potency estimated from few doses at or above 90 µM?
Reply: rule not met

Query: Dear colleague, could you confirm whether O=c1ccccn1CC1CCCNC1 (centres unmarked) [Compound 6a] has potency estimated from few doses at or above 90 µM?
Reply: rule met

Query: Dear colleague, could you confirm whether O=c1ccccn1CC1CCCN(Cc2ccccc2)C1 (centres unmarked) [Compound 6c] has potency estimated from few doses at or above 90 µM?
Reply: rule not met

* * *

# TEST_SYSTEM: α3β4 nAChR (Rattus norvegicus, UniProt P04757+P12392)
# Construct: expressed in transfected cells
# Sequence (P04757 26-499): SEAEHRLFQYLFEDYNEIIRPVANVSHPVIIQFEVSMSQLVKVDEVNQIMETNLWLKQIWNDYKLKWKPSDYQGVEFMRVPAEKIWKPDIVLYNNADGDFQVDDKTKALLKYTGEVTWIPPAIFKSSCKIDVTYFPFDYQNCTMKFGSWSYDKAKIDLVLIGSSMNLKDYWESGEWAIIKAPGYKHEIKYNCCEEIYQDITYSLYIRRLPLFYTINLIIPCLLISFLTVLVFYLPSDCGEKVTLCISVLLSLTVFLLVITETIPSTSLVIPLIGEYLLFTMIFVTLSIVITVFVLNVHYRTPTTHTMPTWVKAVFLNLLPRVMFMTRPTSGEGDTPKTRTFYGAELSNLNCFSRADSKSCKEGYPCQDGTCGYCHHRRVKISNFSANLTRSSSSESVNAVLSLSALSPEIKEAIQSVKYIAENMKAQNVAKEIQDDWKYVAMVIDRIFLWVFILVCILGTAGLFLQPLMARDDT
# Sequence (P12392 21-495): as the sequence (P12392 21-495) above
# PROTOCOL_NOTES: Competition binding with [3H]epibatidine, membrane homogenates of stably transfected cells
# APPLIED_CONDITIONS: mean of three to five independent measurements; [3H]epibatidine; read-out: Ki α3β4
MEASUREMENT_LABEL: Ki
I'd appreciate it if you included the unit after the number.

Query: Please report the measured Ki for CCC(=O)[C@H]1C2CNCC(C2)c2cccc(=O)n21 (single isomer, unassigned; (-)) [(−)-23]
Reply: 280 µM

Query: Please report the measured Ki for CCCCc1ccc(-c2ccc3n(c2=O)CC2CNCC3C2)cc1 (single isomer, unassigned; (-)) [(−)-21b]
Reply: 140 µM

Query: Please report the measured Ki for Cc1ccc(-c2ccc3n(c2=O)CC2CNCC3C2)s1 (single isomer, unassigned; (-)) [(−)-21c]
Reply: 23 µM

Query: Please report the measured Ki for O=c1c(-c2ccc(F)cc2)ccc2n1CC1CNCC2C1 (single isomer, unassigned; (-)) [(−)-21a]
Reply: 66 µM

Query: Please report the measured Ki for COC(=O)[C@H]1C2CNCC(C2)c2cccc(=O)n21 (single isomer, unassigned; (-)) [(−)-22]
Reply: 320 µM
